Values were extracted from patent US20040132648A1.

Test system: PC12 cells
Experiment: Neuroprotective action against β-amyloid, viable cell count / survival rate by WST-8 method
Assay type: cell-based, rat
Design: key: +, P < 0.05 when compared with the no neuropeptide-added group
Details: PACAP-related neuropeptide 10^−9 M; amyloid (50 μM); cell survival rate vs no peptide
Method: An experiment was performed similarly to Example 5, and then the neuroprotective action against cell death by β-amyloid of the following PACAP-related neuropeptides (peptides 1, 2, 4, 5, 7, 8, 15, 16, 17, 19, 21, 26, 27, 28, 29, 30, 31, 32, 33, 34, 35, 36, 37, 38 and 39) and VIP-related neuropeptides (peptides 3, 9, 10, 11, 12, 13, 14, 18, 20, 22, 23, 24 and 25) was confirmed. […]
Value Type: Neuroprotective action

Substance | Value Type | Result
PACAP long form (PACAP34) (H-HSDGIFTDSYSRYRKQMAVKKYLAAVLGKRYKQR-NH2; ends and bridges not checked) [Peptide 35] | Neuroprotective action | +
Arg-PACAP27 (H-HSDGIFTDSYSRYRRQLAVRRYLAAVL-NH2; ends and bridges not checked) [Peptide 6] | Neuroprotective action | +
Arg-PACAP38 (H-HSDGIFTDSYSRYRRQLAVRRYLAAVLGRRYRQRVRNR-NH2; ends and bridges not checked) [Peptide 4] | Neuroprotective action | +
PACAP-like-peptide (stingray-PACAP) (H-HSDGIFTDSYSRYRKQMAVKKYLAAVLGKRYKPKRRNSGRRVFY-NH2; ends and bridges not checked) [Peptide 21] | Neuroprotective action | +
PACAP long form (PACAP37) (H-HSDGIFTDSYSRYRKQMAVKKYLAAVLGKRYKQRVKN-NH2; ends and bridges not checked) [Peptide 38] | Neuroprotective action | +
PACAP short form (PACAP25) (H-HSDGIFTDSYSRYRKQMAVKKYLAA-NH2; ends and bridges not checked) [Peptide 27] | Neuroprotective action | +
PACAP27 highly basic derivative B (H-HSDGIFTDSYSRYRRQLAVRRYLAAVLGKR-NH2; ends and bridges not checked) [Peptide 16] | Neuroprotective action | +
PACAP long form (PACAP28) (H-HSDGIFTDSYSRYRKQMAVKKYLAAVLG-NH2; ends and bridges not checked) [Peptide 29] | Neuroprotective action | +

Attention now shifts to the item below.
Consider the substance PACAP-like-peptide (stargazer-PACAP) (H-HSDGIFTDSYSRYRKQMAVQKYLAAVLGRRYRQRVRNK-NH2; ends and bridges not checked) [Peptide 5] . State its measured Neuroprotective action. +

---

Test system: PC12 cells
Experiment: Neuroprotective action against β-amyloid, viable cell count / survival rate by WST-8 method
Type: cell-based, rat
Parameters: key: +, P < 0.05 when compared with the no neuropeptide-added group
Conditions: PACAP-related neuropeptide 10^−9 M; amyloid (50 μM); cell survival rate vs no peptide

Substance | Neuroprotective action
[A^4, V^5]-PACAP27 (H-HSDAVFTDSYSRYRKQMAVKKYLAAVL-NH2; ends and bridges not checked) [Peptide 7] | +
PACAP long form (PACAP35) (H-HSDGIFTDSYSRYRKQMAVKKYLAAVLGKRYKQRV-NH2; ends and bridges not checked) [Peptide 36] | +
PACAP long form (PACAP32) (H-HSDGIFTDSYSRYRKQMAVKKYLAAVLGKRYK-NH2; ends and bridges not checked) [Peptide 33] | +

---

Tested on: PC12 cells
Assay: Neuroprotective action against β-amyloid, viable cell count / survival rate by WST-8 method
Format: cell-based, rat
Set-up: key: +, P < 0.05 when compared with the no neuropeptide-added group
Conditions: PACAP-related neuropeptide 10^−9 M; amyloid (50 μM); cell survival rate vs no peptide

Substance | Neuroprotective action
PACAP short form (PACAP24) (H-HSDGIFTDSYSRYRKQMAVKKYLA-NH2; ends and bridges not checked) [Peptide 26] | +
PACAP long form (PACAP29) (H-HSDGIFTDSYSRYRKQMAVKKYLAAVLGK-NH2; ends and bridges not checked) [Peptide 30] | +
PACAP27 (H-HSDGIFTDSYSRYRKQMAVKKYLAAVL-NH2; ends and bridges not checked) [Peptide 2] | +
